Tested on: albumin (secreted, cellular toxicity marker)
Assay: Albumin (in vitro cellular tox marker), multiplex assay, PHH
Assay type: cell-based
Details: human, primary human hepatocytes (PXB-PHH) infected with HBV, patient-derived HBV GT D, MOI 40, day 10 pi (Table 5), read-out: In vitro tox albumin IC50 (μM) Median
readout.label: IC50 at 7 days (µM)
The answer is to be given in µM; state only the numeric part.

Query: I am curious: what IC50 at 7 days value has been reported for O=C(NC(CO)CO)c1c[nH]c2ncc(C3CC3)nc12 ?
Reply: 23.7

###

System: cccDNA
Assay: cccDNA (digital PCR), HBV-infected HepaRG
Type: cell-based
Settings: Hepatitis B virus, HepG2.2.15-derived HBV GT D, MOI 40, read-out: cccDNA IC50 (μM) Median
readout.label: IC50 (µM)
The answer is to be given in µM; state only the numeric part.

Query: I am curious: what IC50 value has been reported for O=C(NC(CO)CO)c1c[nH]c2ncc(C3CC3)nc12 [compound 7] ?
Reply: 25.9

###

System: pgRNA
Assay: pgRNA, HBV-infected HepaRG
Type: cell-based
Conditions: Hepatitis B virus, patient-derived HBV GT D, MOI 40, read-out: pgRNA IC50 (μM) Median
readout.label: IC50 (µM)
The answer is to be given in µM; state only the numeric part.

Query: I am curious: what IC50 value has been reported for O=C(NC(CO)CO)c1c[nH]c2ncc(C3CC3)nc12 ?
Reply: 1.93

###

Tested on: albumin (secreted, cellular toxicity marker)
Experiment: Albumin (in vitro tox), HepaRG
Format: cell-based
Details: human, HepaRG cells infected with HBV, patient-derived HBV GT D, MOI 125, read-out: In vitro tox albumin IC50 (μM) Median
readout.label: IC50 (µM)
The answer is to be given in µM; state only the numeric part.

Query: I am curious: what IC50 value has been reported for O=C(NC(CO)CO)c1c[nH]c2ncc(C3CC3)nc12 [compound 7] ?
Reply: 25.7

###

Tested on: HBsAg
Experiment: HBsAg, multiplex assay, HBV-infected PHH
Assay type: cell-based
Conditions: Hepatitis B virus, read-out: HBsAg IC50 (μM) Median, PHH, patient-derived HBV (GT D)
Label key: 1 (yes) means IC50 under 0.7 µM; 0 (no) means IC50 of 0.7 µM or more.

Query: Lab note: confirm whether the reported IC50 for this compound is below 0.7 µM, equality not counting. compound: CC(C)(CO)NC(=O)c1c[nH]c2ncc(C3CC3)nc12
Reply: 1 (yes)

Query: Follow-up item: C[C@H](CO)NC(=O)c1c[nH]c2ncc(C3CC3)nc12
Reply: 0 (no)

Query: Follow-up item: O=C(NC(CO)CO)c1c[nH]c2ncc(C3CC3)nc12
Reply: 1 (yes)

Query: Follow-up item: CC(C)(O)C(CCO)NC(=O)c1c[nH]c2ncc(C3CC3)nc12 (centres unmarked)
Reply: 0 (no)

###

Test system: albumin (secreted, cellular toxicity marker)
Test: Albumin (in vitro cellular tox marker), multiplex assay, PHH
Assay type: cell-based
Conditions: human, primary human hepatocytes (PXB-PHH) infected with HBV, patient-derived HBV GT B, MOI 40, day 10 pi, read-out: In vitro tox albumin IC50 (μM) Median
readout.label: IC50 at 7 days (µM)
The answer is to be given in µM; state only the numeric part.

Query: I am curious: what IC50 at 7 days value has been reported for O=C(NC(CO)CO)c1c[nH]c2ncc(C3CC3)nc12 [compound 7] ?
Reply: 19.2
